MEASUREMENT_TARGET: HLA-A*3101 (human)
TEST_METHOD_NOTES: competition with 125I-labelled probe peptide for purified HLA, gel filtration
MEASURED_PROPERTY: binding affinity ratio (IC50 of standard peptide / IC50 of test peptide)

| BINDER | OBSERVED_MEASUREMENT |
| --- | --- |
| ISCLTFGR (modifications not checked) [HBV NUC 105 peptide ISCLTFGR] | 0.0017 |
| KAGILYKR (modifications not checked) [HBV POL 153 peptide KAGILYKA] | 0.0015 |
| GMDIDPYK (modifications not checked) [HBV NUC 29 peptide GMDIDPYK] | -0.0009 |
| NLEDPASR (modifications not checked) [HBV NUC 75 peptide NLEDPASR] | -0.0009 |
| GIHLNPNKTK (modifications not checked) [HBV POL 567 peptide …] | 0.0009 |
| LSTLPETTVVR (modifications not checked) [HBV NUC 169 peptide …] | -0.0012 |
| LTVNEKRR (modifications not checked) [HBV POL 99 peptide LTVNEKRR] | -0.0009 |
